target: Purified recombinant ADAMTS-7 (rat prodomain/human catalytic domain, SEQ ID No. 01 or 02) (Homo sapiens); construct: rat ADAMTS-7 signal peptide + prodomain (rat 1-217, Q1EHB3) (N); 2xStrep tag (C); 6xHis tag (C); assay: Assay for ADAMTS-7 enzymatic activity (FRET substrate cleavage); settings: FRET substrate SEQ ID No. 11, 120 min at 32° C.; read-out: ADAMTS7-IC50
Sequence (Q9UKP4 237-537): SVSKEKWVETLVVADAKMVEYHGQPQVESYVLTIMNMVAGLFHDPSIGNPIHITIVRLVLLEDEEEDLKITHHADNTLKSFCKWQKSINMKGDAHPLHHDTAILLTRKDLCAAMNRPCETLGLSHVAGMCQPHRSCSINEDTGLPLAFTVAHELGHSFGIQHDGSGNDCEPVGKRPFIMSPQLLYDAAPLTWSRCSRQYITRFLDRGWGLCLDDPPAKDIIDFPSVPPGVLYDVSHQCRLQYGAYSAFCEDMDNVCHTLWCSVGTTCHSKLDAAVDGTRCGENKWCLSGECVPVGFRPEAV
Task for the reader: assign each of the following molecules its reported IC50.
// units = nM; emit number, no label

GET /value?item= Cc1cccc(-n2ncc(C(=O)NC[C@@]3(C4CC4)NC(=O)NC3=O)n2)c1 [Example 18] &field=IC50 returns 170

GET /value?item= O=C1NC(=O)[C@](CNC(=O)c2cnn(-c3ccccc3)n2)(C2CC2)N1 [Example 45] &field=IC50 returns 69

GET /value?item= O=C1NC(=O)C(CNC(=O)c2cnn(-c3ccc(F)c(Cl)c3)n2)(c2nccs2)N1 (single isomer, unassigned; ent-2) [Example 112] &field=IC50 returns 14

GET /value?item= O=C1NC(=O)C(CNC(=O)c2cnn(-c3ccccc3)n2)(C2CCC2)N1 (racemic) [Example 52] &field=IC50 returns 55

GET /value?item= O=C1NC(=O)[C@](CNC(=O)c2nnc(-c3ccc(F)cc3)o2)(C2CC2)N1 [Example 42] &field=IC50 returns 350

GET /value?item= CC(C)C1(CNC(=O)c2cnn(-c3ccc(F)cc3)n2)NC(=O)NC1=O (racemic) [Example 62] &field=IC50 returns 42

GET /value?item= CC(C)C1(CNC(=O)c2cnn(-c3cccc(F)c3)n2)NC(=O)NC1=O (racemic) [Example 118] &field=IC50 returns 46

GET /value?item= O=C1NC(=O)C(CNC(=O)c2cnn(-c3ccc(F)cc3)n2)(c2ccccn2)N1 (single isomer, unassigned) [Example 138] &field=IC50 returns 590

GET /value?item= O=C1NC(=O)C(CNC(=O)c2cnn(-c3ccc(F)cc3)n2)(c2nccs2)N1 (racemic) [Example 113] &field=IC50 returns 39
